EXPERIMENTAL_ENDPOINT: pKi
Notebook: values listed as pKi are -log10 of the concentration (mol/L).

Prompt line: API: value(readout=pKi, system=Procathepsin L (Homo sapiens, UniProt P07711)) for record N#CCNC(=O)[C@H](Cc1ccccc1)NC(=O)OCc1ccccc1
Response line: 6.90

Prompt line: API: value(readout=pKi, system=Procathepsin L (Homo sapiens, UniProt P07711)) for record N#CCNC(=O)[C@H](Cc1ccccc1)NC(=O)c1cnccn1
Response line: 6.00

Prompt line: API: value(readout=pKi, system=Procathepsin L (Homo sapiens, UniProt P07711)) for record CC(C)C[C@H](NC(=O)c1cc(C(C)(C)C)nn1C)C(=O)N(C)N(C)C#N
Response line: 9.30

Prompt line: API: value(readout=pKi, system=Procathepsin L (Homo sapiens, UniProt P07711)) for record N#CCNC(=O)[C@H](Cc1ccccc1)NC(=O)c1c[nH]c(=O)[nH]c1=O
Response line: 6.00

Prompt line: API: value(readout=pKi, system=Procathepsin L (Homo sapiens, UniProt P07711)) for record N#CCNC(=O)[C@H](Cc1ccccc1)NC(=O)c1ccco1
Response line: 6.30

Prompt line: API: value(readout=pKi, system=Procathepsin L (Homo sapiens, UniProt P07711)) for record CC(C)C[C@H](NC(=O)OC(C)(C)C)C(=O)NC1(C#N)CC1
Response line: 6.20

Prompt line: API: value(readout=pKi, system=Procathepsin L (Homo sapiens, UniProt P07711)) for record N#CCNC(=O)[C@H](Cc1ccccc1)NC(=O)c1cncc(Br)c1
Response line: 8.00

Prompt line: API: value(readout=pKi, system=Procathepsin L (Homo sapiens, UniProt P07711)) for record N#CCNC(=O)C1(NC(=O)c2ccccc2)CCCC1
Response line: 5.00

Prompt line: API: value(readout=pKi, system=Procathepsin L (Homo sapiens, UniProt P07711)) for record CC(C)C[C@H](NC(=O)c1cc(C(C)(C)C)nn1C)C(=O)NC1(C#N)CC1
Response line: 7.90

Prompt line: API: value(readout=pKi, system=Procathepsin L (Homo sapiens, UniProt P07711)) for record N#CC1(NC(=O)C2(NC(=O)c3ccccc3)CCCC2)CC1
Response line: 5.40

Prompt line: API: value(readout=pKi, system=Procathepsin L (Homo sapiens, UniProt P07711)) for record N#CCNC(=O)[C@@H](Cc1ccccc1)NC(=O)c1ccccc1
Response line: 5.80

Prompt line: API: value(readout=pKi, system=Procathepsin L (Homo sapiens, UniProt P07711)) for record Cn1nc(C(C)(C)C)cc1C(=O)N[C@@H](Cc1ccccc1)C(=O)NCC#N
Response line: 8.40

Prompt line: API: value(readout=pKi, system=Procathepsin L (Homo sapiens, UniProt P07711)) for record CC(C)C[C@H](NC(=O)OC(C)(C)C)C(=O)NCC#N
Response line: 5.60

Prompt line: API: value(readout=pKi, system=Procathepsin L (Homo sapiens, UniProt P07711)) for record CC(C)C[C@H](NC(=O)c1cc(C(C)(C)C)nn1C)C(=O)NCC#N
Response line: 7.60

Prompt line: API: value(readout=pKi, system=Procathepsin L (Homo sapiens, UniProt P07711)) for record CC(C)C[C@H](NC(=O)C1(c2ccccc2)CCC1)C(=O)NC1(C#N)CC1
Response line: 8.30

Prompt line: API: value(readout=pKi, system=Procathepsin L (Homo sapiens, UniProt P07711)) for record Cn1nc(C(C)(C)C)cc1C(=O)N[C@@H](Cc1ccccc1)C(=O)NC1(C#N)CC1
Response line: 8.30

Prompt line: API: value(readout=pKi, system=Procathepsin L (Homo sapiens, UniProt P07711)) for record CC(C)C[C@H](NC(=O)C(C)(C)c1ccccc1)C(=O)NC1(C#N)CC1
Response line: 7.40

Prompt line: API: value(readout=pKi, system=Procathepsin L (Homo sapiens, UniProt P07711)) for record CC(C)(C#N)NC(=O)[C@H](Cc1ccccc1)NC(=O)c1ccccc1
Response line: 6.20

Prompt line: API: value(readout=pKi, system=Procathepsin L (Homo sapiens, UniProt P07711)) for record CC(C)(C)OC(=O)N[C@@H](Cc1cccc(Cl)c1)C(=O)NCC#N
Response line: 6.60

###

ASSAY_PROTOCOL: Inhibition of Leishmania mexicana CPB delta CTE mutant using Z-Phe-Arg-7-amido-4-methylcoumarin as substrate preincubated for 2 mins followed by substrate addition by fluorimetric assay
EXPERIMENTAL_ENDPOINT: pKi
Write the number on its own, no unit after it.

Prompt line: Looking for the measured pKi of N#CCNC(=O)[C@H](Cc1ccccc1)NC(=O)c1cncc(Br)c1 , can you help?
Response line: 6.9

Prompt line: Looking for the measured pKi of CC(C)C[C@H](NC(=O)C(F)(F)c1ccccc1)C(=O)NC1(C#N)CC1 , can you help?
Response line: 6.8

Prompt line: Looking for the measured pKi of Cn1nc(C(F)(F)F)cc1C(=O)N[C@@H](Cc1ccccc1)C(=O)NCC#N , can you help?
Response line: 7

Prompt line: Looking for the measured pKi of N#CCNC(=O)[C@H](Cc1ccc(OC(=O)c2ccccc2)cc1)NC(=O)c1ccccc1 , can you help?
Response line: 6.9
